target: DYRK1B (Homo sapiens); test: TR-FRET Kinome DYRK1B; assay type: binding; settings: DYRK1B Invitrogen .05(Subs Conc)
Sequence (Q9Y463 whole entry): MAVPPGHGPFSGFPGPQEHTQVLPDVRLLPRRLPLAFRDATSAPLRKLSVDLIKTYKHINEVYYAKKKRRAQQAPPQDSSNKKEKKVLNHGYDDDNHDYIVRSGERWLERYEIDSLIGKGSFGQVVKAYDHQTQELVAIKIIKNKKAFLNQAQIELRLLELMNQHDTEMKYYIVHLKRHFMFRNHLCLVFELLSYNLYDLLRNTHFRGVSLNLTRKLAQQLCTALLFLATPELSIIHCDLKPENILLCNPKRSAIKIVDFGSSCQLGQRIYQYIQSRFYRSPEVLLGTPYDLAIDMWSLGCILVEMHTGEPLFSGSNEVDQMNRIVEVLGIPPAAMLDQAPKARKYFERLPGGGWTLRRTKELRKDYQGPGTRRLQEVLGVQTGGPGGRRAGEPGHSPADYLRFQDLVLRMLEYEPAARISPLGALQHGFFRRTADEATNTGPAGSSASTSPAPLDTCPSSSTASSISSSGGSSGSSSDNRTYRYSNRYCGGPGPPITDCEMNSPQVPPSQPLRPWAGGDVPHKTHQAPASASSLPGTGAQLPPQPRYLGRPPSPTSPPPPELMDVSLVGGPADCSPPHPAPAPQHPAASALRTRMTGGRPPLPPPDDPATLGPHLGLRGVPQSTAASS
PROPERTY MEASURED: Ki

Problem: Suppose we examine the compound CC(C)(C)c1nc2c3cc[nH]c(=O)c3c3cc(F)ccc3c2[nH]1 [JAKi-I, JAK inhibitor I] ; what Ki value has been reported?
Result: > 2650 nM

###

molecular target: UniProt:O00141
Sequence (O00141 whole entry): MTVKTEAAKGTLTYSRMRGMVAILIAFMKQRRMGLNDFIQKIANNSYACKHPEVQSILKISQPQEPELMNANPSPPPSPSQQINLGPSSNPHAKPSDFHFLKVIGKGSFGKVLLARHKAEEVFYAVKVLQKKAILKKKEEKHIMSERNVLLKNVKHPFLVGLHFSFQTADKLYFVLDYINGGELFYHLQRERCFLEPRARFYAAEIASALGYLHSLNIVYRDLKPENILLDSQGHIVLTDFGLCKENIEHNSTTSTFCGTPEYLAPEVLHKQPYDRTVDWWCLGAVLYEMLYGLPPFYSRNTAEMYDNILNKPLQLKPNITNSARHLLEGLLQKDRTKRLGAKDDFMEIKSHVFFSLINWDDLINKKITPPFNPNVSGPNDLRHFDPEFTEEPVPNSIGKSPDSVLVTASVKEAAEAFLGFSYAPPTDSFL
PROPERTY MEASURED: Ki (nM)
Answers are plain numbers, in nM.

Problem: Suppose we examine the compound CC(C)(C)c1nc2c3cc[nH]c(=O)c3c3cc(F)ccc3c2[nH]1 [JAKi-I, JAK inhibitor I] ; what Ki value has been reported?
Result: 626

###

target: UniProtKB Q08345
Sequence (Q08345 19-913): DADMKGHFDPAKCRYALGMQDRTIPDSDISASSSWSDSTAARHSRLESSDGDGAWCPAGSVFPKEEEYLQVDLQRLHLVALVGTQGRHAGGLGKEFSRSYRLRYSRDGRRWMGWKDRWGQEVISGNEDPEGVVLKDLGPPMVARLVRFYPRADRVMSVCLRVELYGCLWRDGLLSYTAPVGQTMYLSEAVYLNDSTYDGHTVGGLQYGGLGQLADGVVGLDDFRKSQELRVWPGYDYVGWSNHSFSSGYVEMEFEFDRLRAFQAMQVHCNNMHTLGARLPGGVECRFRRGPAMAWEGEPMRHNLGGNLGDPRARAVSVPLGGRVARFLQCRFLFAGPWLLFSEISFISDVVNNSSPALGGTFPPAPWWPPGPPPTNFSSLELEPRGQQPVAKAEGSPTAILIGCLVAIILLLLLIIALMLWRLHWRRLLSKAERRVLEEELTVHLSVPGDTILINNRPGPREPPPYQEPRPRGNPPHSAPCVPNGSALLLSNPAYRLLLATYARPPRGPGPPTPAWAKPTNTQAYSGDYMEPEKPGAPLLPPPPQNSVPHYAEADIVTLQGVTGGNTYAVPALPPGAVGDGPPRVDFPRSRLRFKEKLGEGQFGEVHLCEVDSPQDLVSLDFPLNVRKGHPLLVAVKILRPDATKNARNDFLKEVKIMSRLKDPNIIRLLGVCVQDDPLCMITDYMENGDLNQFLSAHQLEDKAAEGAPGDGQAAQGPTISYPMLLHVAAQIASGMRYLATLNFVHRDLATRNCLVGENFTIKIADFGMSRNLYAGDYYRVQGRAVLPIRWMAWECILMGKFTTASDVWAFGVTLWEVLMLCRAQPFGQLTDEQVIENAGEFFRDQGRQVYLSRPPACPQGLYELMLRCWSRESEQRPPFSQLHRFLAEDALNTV
PROPERTY MEASURED: Ki

Problem: Suppose we examine the compound `CC(C)(C)c1nc2c3cc[nH]c(=O)c3c3cc(F)ccc3c2[nH]1` ; what Ki value has been reported?
Result: > 2590 nM

###

target: Rock2 (Homo sapiens, UniProt O75116)
PROPERTY MEASURED: Ki

Problem: Entry `CC(C)(C)c1nc2c3cc[nH]c(=O)c3c3cc(F)ccc3c2[nH]1` , system Rock2 (Homo sapiens, UniProt O75116): what Ki was measured?
Result: > 3.33 µM

###

biological target: STK16 (Homo sapiens, UniProt O75716)
Sequence (O75716 whole entry): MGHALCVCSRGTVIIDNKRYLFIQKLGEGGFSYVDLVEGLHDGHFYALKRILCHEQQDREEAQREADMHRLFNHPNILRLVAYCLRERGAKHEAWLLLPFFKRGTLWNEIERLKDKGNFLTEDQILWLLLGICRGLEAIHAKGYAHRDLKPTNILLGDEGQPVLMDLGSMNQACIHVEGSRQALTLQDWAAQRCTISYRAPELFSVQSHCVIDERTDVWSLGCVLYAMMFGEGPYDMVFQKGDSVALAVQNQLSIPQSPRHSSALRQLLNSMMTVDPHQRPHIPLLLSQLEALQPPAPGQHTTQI
pKi: −log10 of the molar value.
PROPERTY MEASURED: pKi

Problem: Suppose we examine the compound CC(C)(C)c1nc2c3cc[nH]c(=O)c3c3cc(F)ccc3c2[nH]1 [JAKi-I, JAK inhibitor I] ; what pKi value has been reported?
Result: < 5.27

###

target: TAOK2 (Homo sapiens)
pKi: −log10 of the molar value.
PROPERTY MEASURED: pKi

Problem: Suppose we examine the compound `CC(C)(C)c1nc2c3cc[nH]c(=O)c3c3cc(F)ccc3c2[nH]1` ; what pKi value has been reported?
Result: < 5.18

###

target: EGFR (Homo sapiens, UniProt P00533)
Sequence (P00533 25-1210): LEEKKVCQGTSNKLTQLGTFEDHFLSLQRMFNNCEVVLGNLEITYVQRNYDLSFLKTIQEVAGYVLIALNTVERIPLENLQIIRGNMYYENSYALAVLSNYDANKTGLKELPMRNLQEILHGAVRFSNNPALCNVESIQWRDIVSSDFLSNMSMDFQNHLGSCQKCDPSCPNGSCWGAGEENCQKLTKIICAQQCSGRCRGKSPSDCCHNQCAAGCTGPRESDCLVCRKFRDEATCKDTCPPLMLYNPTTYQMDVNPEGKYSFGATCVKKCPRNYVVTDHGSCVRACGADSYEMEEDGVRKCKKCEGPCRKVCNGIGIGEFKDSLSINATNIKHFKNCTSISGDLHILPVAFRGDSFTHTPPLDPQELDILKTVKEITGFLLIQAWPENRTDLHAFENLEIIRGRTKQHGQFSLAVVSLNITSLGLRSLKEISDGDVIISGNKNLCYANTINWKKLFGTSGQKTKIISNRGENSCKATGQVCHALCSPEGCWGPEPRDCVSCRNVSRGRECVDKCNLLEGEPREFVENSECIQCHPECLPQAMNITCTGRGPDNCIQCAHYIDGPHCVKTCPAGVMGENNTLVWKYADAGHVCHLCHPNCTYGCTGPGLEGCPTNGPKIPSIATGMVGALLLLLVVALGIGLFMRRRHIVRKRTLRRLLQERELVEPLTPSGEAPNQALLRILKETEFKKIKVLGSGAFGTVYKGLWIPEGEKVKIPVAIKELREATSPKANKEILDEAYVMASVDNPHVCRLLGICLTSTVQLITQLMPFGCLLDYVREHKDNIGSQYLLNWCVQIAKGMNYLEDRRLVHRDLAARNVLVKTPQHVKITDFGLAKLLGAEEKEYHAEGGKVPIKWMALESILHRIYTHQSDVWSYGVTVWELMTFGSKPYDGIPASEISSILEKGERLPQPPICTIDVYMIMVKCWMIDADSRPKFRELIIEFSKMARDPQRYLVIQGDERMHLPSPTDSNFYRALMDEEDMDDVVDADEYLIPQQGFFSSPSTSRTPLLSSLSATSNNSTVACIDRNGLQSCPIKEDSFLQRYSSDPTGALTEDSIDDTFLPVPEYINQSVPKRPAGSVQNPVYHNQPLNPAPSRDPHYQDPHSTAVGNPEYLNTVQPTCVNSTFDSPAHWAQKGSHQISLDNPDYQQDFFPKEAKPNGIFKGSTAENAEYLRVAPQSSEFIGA
PROPERTY MEASURED: Ki

Problem: Entry `CC(C)(C)c1nc2c3cc[nH]c(=O)c3c3cc(F)ccc3c2[nH]1` , system EGFR (Homo sapiens, UniProt P00533): what Ki was measured?
Result: > 1670 nM

###

target: STK33 (Homo sapiens, UniProt Q9BYT3); assay: TR-FRET Kinome STK33; type: binding; conditions: STK33 Invitrogen .005(Subs Conc)
PROPERTY MEASURED: pKi
Give bare numbers, as −log10 of the molar value.

Problem: Suppose we examine the molecule `CC(C)(C)c1nc2c3cc[nH]c(=O)c3c3cc(F)ccc3c2[nH]1` ; what pKi value has been reported?
Result: 7.52

###

molecular target: CAMKK2 (Homo sapiens, UniProt Q96RR4)
Sequence (Q96RR4 whole entry): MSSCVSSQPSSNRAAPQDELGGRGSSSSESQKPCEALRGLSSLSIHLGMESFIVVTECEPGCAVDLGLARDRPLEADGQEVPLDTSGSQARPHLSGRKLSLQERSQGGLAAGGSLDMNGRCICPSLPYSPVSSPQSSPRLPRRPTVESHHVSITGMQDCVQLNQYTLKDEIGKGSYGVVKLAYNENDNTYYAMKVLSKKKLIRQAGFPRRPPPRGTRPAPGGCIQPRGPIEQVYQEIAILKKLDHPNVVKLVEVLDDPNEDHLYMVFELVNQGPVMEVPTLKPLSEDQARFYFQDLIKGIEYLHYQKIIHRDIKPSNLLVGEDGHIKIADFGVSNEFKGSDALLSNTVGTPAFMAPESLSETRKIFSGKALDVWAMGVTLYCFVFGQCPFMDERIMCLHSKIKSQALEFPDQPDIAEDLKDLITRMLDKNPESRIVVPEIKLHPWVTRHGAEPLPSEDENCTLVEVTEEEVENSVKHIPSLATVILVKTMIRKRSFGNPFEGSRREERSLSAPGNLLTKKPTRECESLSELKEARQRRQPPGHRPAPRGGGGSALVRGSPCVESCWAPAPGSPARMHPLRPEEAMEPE
pKi: −log10 of the molar value.
PROPERTY MEASURED: pKi

Problem: Suppose we examine the compound `CC(C)(C)c1nc2c3cc[nH]c(=O)c3c3cc(F)ccc3c2[nH]1` ; what pKi value has been reported?
Result: < 5.51

###

biological target: UniProt P15056
Sequence (P15056 whole entry): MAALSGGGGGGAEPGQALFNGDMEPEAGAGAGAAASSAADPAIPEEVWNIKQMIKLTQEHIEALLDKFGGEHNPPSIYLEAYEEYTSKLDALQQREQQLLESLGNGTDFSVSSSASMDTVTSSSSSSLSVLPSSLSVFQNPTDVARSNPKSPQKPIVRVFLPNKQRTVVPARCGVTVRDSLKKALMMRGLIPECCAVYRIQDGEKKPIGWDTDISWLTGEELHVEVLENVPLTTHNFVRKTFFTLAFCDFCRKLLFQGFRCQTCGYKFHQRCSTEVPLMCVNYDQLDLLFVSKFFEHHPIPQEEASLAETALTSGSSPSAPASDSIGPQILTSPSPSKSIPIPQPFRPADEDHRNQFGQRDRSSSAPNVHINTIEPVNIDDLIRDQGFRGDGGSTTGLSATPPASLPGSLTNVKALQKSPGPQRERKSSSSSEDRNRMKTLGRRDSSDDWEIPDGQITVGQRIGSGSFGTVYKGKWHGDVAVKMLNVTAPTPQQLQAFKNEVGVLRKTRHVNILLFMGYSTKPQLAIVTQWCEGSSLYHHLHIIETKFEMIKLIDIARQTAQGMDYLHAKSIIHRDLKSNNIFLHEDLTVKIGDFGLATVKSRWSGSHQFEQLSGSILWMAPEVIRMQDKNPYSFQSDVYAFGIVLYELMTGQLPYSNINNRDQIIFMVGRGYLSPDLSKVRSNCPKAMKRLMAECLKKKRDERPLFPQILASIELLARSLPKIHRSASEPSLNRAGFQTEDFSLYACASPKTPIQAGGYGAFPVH
pKi: −log10 of the molar value.
PROPERTY MEASURED: pKi

Problem: Suppose we examine the compound CC(C)(C)c1nc2c3cc[nH]c(=O)c3c3cc(F)ccc3c2[nH]1 [JAKi-I, JAK inhibitor I] ; what pKi value has been reported?
Result: < 5.47
